GI50 overview
tested on: MDA-N; test: NCI tumour cell line growth inhibition, 48 h
The source made the active and inactive calls. No stated cut-off is given here; in the data, active = GI50 up to about 1.1 µM and inactive = higher.

Req: Please indicate GI50 recorded for CC1(C)Cc2c(c3ccccc3c3nc4c(nc23)c2c(c3ccccc34)OC(C)(C)C2)O1
Resp: > 100 µM (inactive)

Req: Give the reported value of GI50 for this record: COc1ccccc1Cn1c2c(c3c(C(=O)NCCN(C)C)c(O)ccc31)C(=O)c1ccccc1C2=O
Resp: 1.4 µM (inactive)

Req: Give recorded GI50. Cc1nc(C)c(N2CCN(Cc3ccccc3)CC2)c(O)n1
Resp: > 100 µM (inactive)

Req: Query GI50 for O=C(NCC(=O)N1CCCC1C(=O)OC(=O)C1CCCN1C(=O)CNC(=O)OCc1ccccc1)OCc1ccccc1 (configuration not stated)
Resp: 25.3 µM (inactive)

Req: Return GI50 for the following molecule: O=C1C(Cl)=C(NCCCN2CCOCC2)C(=O)c2c(O)ccc(O)c21
Resp: 1.72 µM (inactive)

---

test system: OVCAR-3; experiment: NCI tumour cell line growth inhibition, 48 h
Calls of active or inactive are those of the source. Cut-off read from the data, not from the text of the source: active = GI50 up to about 1.1 µM and inactive = higher.
attribute-measured: GI50

Use the examples below as a reference point.
>  <compound>
COC(=O)C(C(=O)C(=O)Nc1nnc(S)[nH]1)c1csc(N)n1 (stereo unspecified)

>  <GI50>
> 100 µM (inactive)

$$$$
>  <compound>
CCC(C)(O)c1cn(-c2cccc(S(=O)(=O)O)c2)nn1 (stereo unspecified)

>  <GI50>
> 100 µM (inactive)

$$$$
>  <compound>
c1cncc(-c2cc(-c3cc(-c4cccnc4)[nH]n3)n[nH]2)c1

>  <GI50>
> 100 µM (inactive)

$$$$
>  <compound>
O=CN1CCN(C(=O)c2ccc(Cl)cc2)C1=S

>  <GI50>
15.4 µM (inactive)

$$$$
>  <compound>
Cc1ccc(C(=O)O)cc1S(=O)(=O)Nn1cnc2ccc(S(=O)(=O)Nc3ccccc3C(=O)O)cc2c1=O

>  <GI50>
> 100 µM (inactive)

$$$$

Req: // fetch GI50 given entry OCC(O)COCn1nncc1Cn1ncc2c(SCc3ccccc3)ncnc21 (stereo unspecified)
Resp: > 100 µM (inactive)

Req: Please report the measured GI50 for CN(C)CCCNC1=C(Cl)C(=O)c2c(O)ccc(O)c2C1=O
Resp: 2.24 µM (inactive)

Req: Check the records and state GI50 for COc1cccc(C2c3cc4c(cc3OC(NNc3ccccc3)C2C)OCO4)c1O (stereo unspecified)
Resp: 2.71 µM (inactive)

Req: Determine its reported GI50: CCC(C)(C)/C(CC(O)(C(F)(F)F)C(F)(F)F)=N\O
Resp: > 100 µM (inactive)

Req: Tell me GI50 reported for Nc1nc(-c2ccccc2)nc2c1[n+]([O-])c1ccccc1[n+]2[O-]
Resp: > 100 µM (inactive)

Req: Specify reported GI50 for the compound shown: CCOc1ccc2nc3nc(O)nc(C)c3c(NC(C)(CO)CO)c2c1
Resp: > 100 µM (inactive)

---

system: RXF 393; experiment: NCI tumour cell line growth inhibition, 48 h
Calls of active or inactive are those of the source. Rule as the data show it: active = GI50 up to about 1.1 µM and inactive = higher.
attribute-measured: GI50

>  <molecule>
CCCCCCCCCCCCCCCCC(C(=O)O)C(O)(CC(=O)O)C(=O)O (stereo not given)

>  <attribute-measured>
GI50

>  <reported-measurement>
22.1 µM (inactive)

$$$$
>  <molecule>
CCOC(=O)CC1(C(=O)OCC)c2[nH]c3ccccc3c2CCN1Cc1ccccc1 (stereo not given)

>  <attribute-measured>
GI50

>  <reported-measurement>
17.7 µM (inactive)

$$$$
>  <molecule>
C[C@]12CC[C@@H]3c4cc(OCC(F)(F)F)c(O)cc4C(=O)C[C@H]3[C@@H]1CC[C@@H]2O

>  <attribute-measured>
GI50

>  <reported-measurement>
13 µM (inactive)

$$$$
>  <molecule>
OC1(c2ccc(Cl)cc2)C(N2CCCC2)c2ccccc2C2=NCCN21 (stereo not given)

>  <attribute-measured>
GI50

>  <reported-measurement>
29.1 µM (inactive)

$$$$

Continue with the next molecule.
Req: Please give measured GI50 of the following entry: CCOc1ccccc1NC(=O)C(=O)C1C(=O)Nc2ccccc2[S+]1[O-] (stereo not given)
Resp: > 100 µM (inactive)
